readout kind: pIC50
Scale note: pIC50 = -log10(concentration in M).

Hi! What's the reported pIC50 for `CCN1CCN(Cc2ccc(NC(=O)c3ccc(C)c(Oc4ncnc5cc(NC)c(OC)cc45)c3)cc2C(F)(F)F)CC1` on FES (FPS) (Homo sapiens, UniProt P07332)?
7.96

* * *

readout kind: IC50 (nM)
Give the value, in units of nM, as a plain number.

Request - read-out IC50 | tested on HCK (Homo sapiens, UniProt P08631) | compound CCN1CCN(Cc2ccc(NC(=O)c3ccc(C)c(Oc4ncnc5cc(NC)c(OC)cc45)c3)cc2C(F)(F)F)CC1 [Compound (I-1)]
7.39

* * *

Target: MAP4K2 (GCK) (Homo sapiens, UniProt Q12851)
Sequence (Q12851 1-820): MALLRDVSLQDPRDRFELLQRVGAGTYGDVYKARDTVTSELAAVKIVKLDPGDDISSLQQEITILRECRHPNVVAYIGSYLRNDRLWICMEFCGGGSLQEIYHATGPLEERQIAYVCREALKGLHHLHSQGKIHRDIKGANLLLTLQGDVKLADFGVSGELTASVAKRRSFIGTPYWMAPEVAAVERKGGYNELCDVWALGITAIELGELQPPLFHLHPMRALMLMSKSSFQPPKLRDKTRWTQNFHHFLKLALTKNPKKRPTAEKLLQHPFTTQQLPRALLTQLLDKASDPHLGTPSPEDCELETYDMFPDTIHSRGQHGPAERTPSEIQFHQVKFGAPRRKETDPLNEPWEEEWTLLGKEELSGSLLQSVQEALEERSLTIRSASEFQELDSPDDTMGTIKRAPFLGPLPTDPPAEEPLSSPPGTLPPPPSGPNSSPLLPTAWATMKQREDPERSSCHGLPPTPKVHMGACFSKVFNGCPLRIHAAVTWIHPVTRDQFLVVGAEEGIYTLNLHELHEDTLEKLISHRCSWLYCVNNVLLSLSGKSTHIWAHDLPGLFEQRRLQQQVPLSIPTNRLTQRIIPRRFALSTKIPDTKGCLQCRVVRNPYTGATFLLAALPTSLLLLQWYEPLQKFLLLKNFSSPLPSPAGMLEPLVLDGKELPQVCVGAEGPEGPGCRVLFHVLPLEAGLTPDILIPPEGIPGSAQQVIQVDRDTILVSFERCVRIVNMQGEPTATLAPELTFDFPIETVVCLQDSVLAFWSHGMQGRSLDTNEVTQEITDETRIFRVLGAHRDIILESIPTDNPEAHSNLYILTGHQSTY
readout kind: IC50 (nM)
Give the value in nM but do not write nM after it.

Which IC50 reading was recorded for the compound `CCN1CCN(Cc2ccc(NC(=O)c3ccc(C)c(Oc4ncnc5cc(NC)c(OC)cc45)c3)cc2C(F)(F)F)CC1` ?
8.35

* * *

Assay: microsome stability (human)
Format: in vitro ADME
Conditions: microsomes, read-out: microsome stability (T1/2, min)
readout kind: half-life (min)
Numbers only; they are read as min.

GET /values?readout=half-life&item= `CCN1CCN(Cc2ccc(NC(=O)c3ccc(C)c(Oc4ncnc5cc(NC)c(OC)cc45)c3)cc2C(F)(F)F)CC1`
79.3

* * *

Molecular target: FYN (Homo sapiens)
Sequence (P06241 whole entry): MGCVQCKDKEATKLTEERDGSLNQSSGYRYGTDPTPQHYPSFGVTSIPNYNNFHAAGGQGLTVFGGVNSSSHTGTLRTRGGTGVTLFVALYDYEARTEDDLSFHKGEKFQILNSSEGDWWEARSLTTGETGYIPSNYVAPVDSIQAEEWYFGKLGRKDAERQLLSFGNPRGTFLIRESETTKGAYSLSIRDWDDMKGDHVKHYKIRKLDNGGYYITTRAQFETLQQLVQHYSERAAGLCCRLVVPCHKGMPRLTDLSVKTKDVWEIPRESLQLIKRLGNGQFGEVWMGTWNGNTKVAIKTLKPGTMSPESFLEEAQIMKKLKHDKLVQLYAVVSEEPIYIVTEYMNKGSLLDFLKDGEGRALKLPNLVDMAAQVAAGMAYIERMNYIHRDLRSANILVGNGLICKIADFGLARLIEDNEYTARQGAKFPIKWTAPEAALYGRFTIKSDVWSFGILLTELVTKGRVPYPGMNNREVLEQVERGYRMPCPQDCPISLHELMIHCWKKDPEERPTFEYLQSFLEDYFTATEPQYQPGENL
readout kind: IC50 (nM)
Please reply with the bare figure in nM and do not write the unit itself.

Quick one: IC50 for `CCN1CCN(Cc2ccc(NC(=O)c3ccc(C)c(Oc4ncnc5cc(NC)c(OC)cc45)c3)cc2C(F)(F)F)CC1` ?
419
